Tested on: A549
run description: Cytotoxicity against human A549 cells after 96 hrs by SRB assay
Format: functional, cell-based
run parameters: Homo sapiens, A549, 96 h
Returns: string. Value is class 1 if measured IC50 is below 5 µM, and class 0 if it is greater than or equal to it.

IC50 strictly < 5 µM for this compound? `COC(=O)[C@@]1(C)CC[C@]2(C)CC[C@]3(C)C(=CC(=O)[C@@H]4[C@@]5(C)CC[C@H](OC(=O)CN)C(C)(C)[C@@H]5CC[C@]43C)[C@@H]2C1`
class 0

IC50 strictly < 5 µM for this compound? `CCOC(=O)[C@@]1(C)CC[C@]2(C)CC[C@]3(C)C(=CC(=O)[C@@H]4[C@@]5(C)CC[C@H](OC(=O)CN)C(C)(C)[C@@H]5CC[C@]43C)[C@@H]2C1`
class 0

IC50 strictly < 5 µM for this compound? `CC(C)OC(=O)[C@@]1(C)CC[C@]2(C)CC[C@]3(C)C(=CC(=O)[C@@H]4[C@@]5(C)CC[C@H](OC(=O)[C@@H](C)N)C(C)(C)[C@@H]5CC[C@]43C)[C@@H]2C1`
class 1

IC50 strictly < 5 µM for this compound? `CC(C)OC(=O)[C@@]1(C)CC[C@]2(C)CC[C@]3(C)C(=CC(=O)[C@@H]4[C@@]5(C)CC[C@H](O)C(C)(C)[C@@H]5CC[C@]43C)[C@@H]2C1`
class 0

---

Tested on: A549
run description: Cytotoxicity against human A549 cells after 96 hrs by SRB assay
Assay type: functional, cell-based
run parameters: Homo sapiens, A549, 96 h
measure: IC50 (nM)
# unit: nM | format: bare number

Recorded IC50 (molecule `COC(=O)[C@@]1(C)CC[C@]2(C)CC[C@]3(C)C(=CC(=O)[C@@H]4[C@@]5(C)CC[C@H](OC(=O)[C@@H](C)N)C(C)(C)[C@@H]5CC[C@]43C)[C@@H]2C1` ): 2260

Recorded IC50 (molecule `CC(C)OC(=O)[C@@]1(C)CC[C@]2(C)CC[C@]3(C)C(=CC(=O)[C@@H]4[C@@]5(C)CC[C@H](OC(=O)CN)C(C)(C)[C@@H]5CC[C@]43C)[C@@H]2C1` ): 2650

Recorded IC50 (molecule `CC(C)OC(=O)[C@@]1(C)CC[C@]2(C)CC[C@]3(C)C(=CC(=O)[C@@H]4[C@@]5(C)CC[C@H](OC(=O)CCN)C(C)(C)[C@@H]5CC[C@]43C)[C@@H]2C1` ): 1780

---

run description: Cytotoxicity against human A253 cells after 96 hrs by SRB assay
Assay type: functional, cell-based
run parameters: Homo sapiens, A253, 96 h
So I've got a bunch of compounds here, and I need their IC50 values.
# unit: µM | format: bare number

Recorded IC50 (compound `COC(=O)[C@@]1(C)CC[C@]2(C)CC[C@]3(C)C(=CC(=O)[C@@H]4[C@@]5(C)CC[C@H](OC(=O)[C@H](C)N)C(C)(C)[C@@H]5CC[C@]43C)[C@@H]2C1` ): 3.61

Recorded IC50 (compound `CC(C)OC(=O)[C@@]1(C)CC[C@]2(C)CC[C@]3(C)C(=CC(=O)[C@@H]4[C@@]5(C)CC[C@H](OC(=O)CN)C(C)(C)[C@@H]5CC[C@]43C)[C@@H]2C1` ): 2.01

Recorded IC50 (compound `CC(C)OC(=O)[C@@]1(C)CC[C@]2(C)CC[C@]3(C)C(=CC(=O)[C@@H]4[C@@]5(C)CC[C@H](O)C(C)(C)[C@@H]5CC[C@]43C)[C@@H]2C1` ): 15.8

---

Tested on: A549
run description: Cytotoxicity against human A549 cells after 96 hrs by SRB assay
Assay type: functional, cell-based
run parameters: Homo sapiens, A549, 96 h
pIC50: −log10 of the molar value.
So I've got a bunch of molecules here, and I need their pIC50 values.

The recorded pIC50 with A549 for `CC1(C)[C@@H](OC(=O)CN)CC[C@]2(C)[C@H]3C(=O)C=C4[C@@H]5C[C@@](C)(C(=O)O)CC[C@]5(C)CC[C@@]4(C)[C@]3(C)CC[C@@H]12` was < 4.52

The recorded pIC50 with A549 for `C[C@H](N)C(=O)O[C@H]1CC[C@]2(C)[C@H]3C(=O)C=C4[C@@H]5C[C@@](C)(C(=O)O)CC[C@]5(C)CC[C@@]4(C)[C@]3(C)CC[C@H]2C1(C)C` was < 4.52

The recorded pIC50 with A549 for `CC1(C)[C@@H](OC(=O)CCN)CC[C@]2(C)[C@H]3C(=O)C=C4[C@@H]5C[C@@](C)(C(=O)O)CC[C@]5(C)CC[C@@]4(C)[C@]3(C)CC[C@@H]12` was < 4.52
